assay: Efflux ratio of permeability in human Caco2 cells; assay type: ADME, cell-based; details: Caco-2
measurement label: efflux ratio

chemical smiles | qualifier operator | number
CC(C)COc1ncc(-c2cn(C)c3cc(C(=O)NS(=O)(=O)C4CC4)c(F)cc23)cc1Cl | = | 3
CC(C)COc1ccc(-c2cn(C)c3cc(C(=O)NS(C)(=O)=O)c(F)cc23)cn1 | = | 3.1
CC(C)COc1ncc(-c2cn(C)c3cc(C(=O)NS(C)(=O)=O)ccc23)cc1Cl | > | 5.5
Cn1nc(-c2ccc(C(F)(F)F)cc2)c2cc(F)c(C(=O)NS(=O)(=O)C3CC3)cc21 | > | 21
Cn1cc(-c2ccc(C(F)(F)F)cc2)c2cc(F)c(C(=O)NS(=O)(=O)C3CC3)cc21 | = | 1.9

* * *

experiment: Permeability from apical to basolateral side in human Caco2 cells; type: ADME, cell-based; conditions: Caco-2, read-out: permeability
measurement label: Papp A→B (nm/s)

chemical smiles | qualifier operator | number
Cn1cc(-c2cnc(OCC3CC3)c(Cl)c2)c2ccc(C(=O)NS(=O)(=O)C3CC3)cc21 | < | 15
CC(C)Cc1ccc(-c2cn(C)c3cc(C(=O)NS(C)(=O)=O)ccc23)cc1 | < | 15
Cn1cc(-c2ccc(C(F)(F)F)cc2)c2ccc(C(=O)NS(C)(=O)=O)cc21 | < | 15
CC(C)COc1ncc(-c2cn(C)c3cc(C(=O)NS(=O)(=O)C4CC4)c(F)cc23)cc1Cl | = | 34
Cn1cc(-c2ccc(C(F)(F)F)cc2)c2cc(F)c(C(=O)NS(C)(=O)=O)cc21 | = | 20
CC(C)COc1ccc(-c2cn(C)c3cc(C(=O)NS(C)(=O)=O)c(F)cc23)cn1 | = | 61
CC(C)COc1ncc(-c2cn(C)c3cc(C(=O)NS(C)(=O)=O)c(F)cc23)cc1Cl | = | 20

* * *

biological target: Sodium channel protein type 9 subunit alpha (Homo sapiens, UniProt Q15858); assay: Inhibition of recombinant human Nav1.7 expressed in HEK293 cells at -70 mV holding potential by patch clamp electrophysiology method; type: cell-based
Sequence (Q15858 whole entry): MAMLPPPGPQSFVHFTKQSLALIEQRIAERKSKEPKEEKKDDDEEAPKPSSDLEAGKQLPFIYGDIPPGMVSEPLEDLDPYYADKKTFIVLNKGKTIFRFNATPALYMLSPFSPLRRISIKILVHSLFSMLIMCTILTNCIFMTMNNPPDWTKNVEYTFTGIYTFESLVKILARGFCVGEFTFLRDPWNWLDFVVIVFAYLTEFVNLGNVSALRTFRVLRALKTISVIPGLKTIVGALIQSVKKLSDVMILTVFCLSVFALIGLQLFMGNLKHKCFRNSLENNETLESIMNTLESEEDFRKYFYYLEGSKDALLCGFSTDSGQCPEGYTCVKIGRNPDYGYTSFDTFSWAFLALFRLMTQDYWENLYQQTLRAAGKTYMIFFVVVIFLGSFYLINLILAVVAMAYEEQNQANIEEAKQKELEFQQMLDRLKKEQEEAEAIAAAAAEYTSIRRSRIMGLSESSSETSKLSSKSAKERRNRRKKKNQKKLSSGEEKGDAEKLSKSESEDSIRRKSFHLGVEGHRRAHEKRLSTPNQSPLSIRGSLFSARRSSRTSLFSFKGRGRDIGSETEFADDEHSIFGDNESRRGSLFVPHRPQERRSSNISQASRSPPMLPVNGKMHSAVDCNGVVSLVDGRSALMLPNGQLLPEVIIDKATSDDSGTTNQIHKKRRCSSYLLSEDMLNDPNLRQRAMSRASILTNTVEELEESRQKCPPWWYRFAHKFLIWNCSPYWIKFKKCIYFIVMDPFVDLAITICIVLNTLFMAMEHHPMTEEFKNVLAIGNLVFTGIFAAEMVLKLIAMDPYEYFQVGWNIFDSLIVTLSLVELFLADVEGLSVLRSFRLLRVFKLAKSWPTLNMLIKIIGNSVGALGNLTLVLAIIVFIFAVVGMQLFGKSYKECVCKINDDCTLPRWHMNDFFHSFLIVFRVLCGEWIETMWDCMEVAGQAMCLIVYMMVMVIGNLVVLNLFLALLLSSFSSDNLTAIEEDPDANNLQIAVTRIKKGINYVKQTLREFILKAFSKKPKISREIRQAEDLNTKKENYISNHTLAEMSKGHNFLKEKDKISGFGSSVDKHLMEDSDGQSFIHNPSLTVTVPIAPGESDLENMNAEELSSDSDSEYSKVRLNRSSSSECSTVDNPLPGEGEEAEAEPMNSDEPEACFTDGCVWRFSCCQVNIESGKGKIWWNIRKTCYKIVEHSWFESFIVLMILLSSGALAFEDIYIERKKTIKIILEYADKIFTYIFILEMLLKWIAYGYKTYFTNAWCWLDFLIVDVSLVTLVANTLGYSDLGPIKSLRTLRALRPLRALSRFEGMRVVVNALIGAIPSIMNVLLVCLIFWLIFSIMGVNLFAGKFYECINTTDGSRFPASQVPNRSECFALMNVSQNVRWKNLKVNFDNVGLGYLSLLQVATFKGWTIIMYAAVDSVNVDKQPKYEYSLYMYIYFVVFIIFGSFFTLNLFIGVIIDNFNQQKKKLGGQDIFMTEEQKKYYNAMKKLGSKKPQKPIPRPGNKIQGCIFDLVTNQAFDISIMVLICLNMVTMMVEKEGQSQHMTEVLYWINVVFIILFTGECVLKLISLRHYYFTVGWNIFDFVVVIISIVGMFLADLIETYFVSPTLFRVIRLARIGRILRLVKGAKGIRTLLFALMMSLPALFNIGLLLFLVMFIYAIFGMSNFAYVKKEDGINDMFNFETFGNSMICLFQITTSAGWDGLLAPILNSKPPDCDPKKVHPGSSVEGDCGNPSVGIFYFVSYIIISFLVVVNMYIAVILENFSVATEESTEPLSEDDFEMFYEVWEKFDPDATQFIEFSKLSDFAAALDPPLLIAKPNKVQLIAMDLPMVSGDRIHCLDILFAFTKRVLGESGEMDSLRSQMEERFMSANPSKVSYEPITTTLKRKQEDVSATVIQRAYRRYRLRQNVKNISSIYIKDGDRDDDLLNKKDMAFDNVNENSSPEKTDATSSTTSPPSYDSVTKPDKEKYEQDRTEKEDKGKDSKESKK
Listed below: IC50 values for each entry.
measurement label: IC50 (nM)

chemical smiles | measurement label | number
Cn1cc(-c2ccc(C(F)F)cc2)c2cc(F)c(C(=O)NS(=O)(=O)C3CC3)cc21 | IC50 | 12
Cn1cc(-c2cnc(OCC3CC3)c(Cl)c2)c2ccc(C(=O)NS(=O)(=O)C3CC3)cc21 | IC50 | 27
Cn1nc(-c2ccc(C(F)(F)F)cc2)c2cc(F)c(C(=O)NS(=O)(=O)C3CC3)cc21 | IC50 | 21
